- subject_of_test: T1, CNTF receptor-α (CNTFRα) (UniProt P26992 23-342, limits assumed)
- T1 construct: also called CNTFRa; CNTF a-receptor
- T1 sequence (looked up): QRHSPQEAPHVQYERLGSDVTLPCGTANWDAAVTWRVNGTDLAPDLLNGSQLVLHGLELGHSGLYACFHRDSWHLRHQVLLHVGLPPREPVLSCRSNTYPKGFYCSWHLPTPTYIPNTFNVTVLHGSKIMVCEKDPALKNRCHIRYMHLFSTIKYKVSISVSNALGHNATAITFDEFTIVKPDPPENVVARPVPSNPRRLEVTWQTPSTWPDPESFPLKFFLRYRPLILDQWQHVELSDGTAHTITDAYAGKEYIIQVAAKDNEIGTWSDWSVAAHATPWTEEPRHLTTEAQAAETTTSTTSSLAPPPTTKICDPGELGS
- assay_procedure: solid phase binding assay on CNTFRα
Entries and their measured Relative Binding (hCNTF = 1) follow.

[[record]]
binder = "(Lys155Ala/Ser166Asp/Gln167His) hCNTF (ligand) MAFTEHSPLTPHRRDLCSRSIWLARKIRSDLTALTESYVKHQGLNKNINLDSADGMPVASTDQWSELTEAERLQENLQAYRTFHVLLARLLEDQQVHFTPTEGDFHQAIHTLLLQVAAFAYQIEELMILLEYKIPRNEADGMPINVGDGGLFEKALWGLKVLQELDHWTVRSIHDLRFISSHQTGIPARGSHYIANNKKM"
readout_kind = "Relative Binding (hCNTF = 1)"
value_measured = "51 relative (hCNTF = 1)"

[[record]]
binder = "(Gln163Ser/Gln167His) hCNTF (ligand) MAFTEHSPLTPHRRDLCSRSIWLARKIRSDLTALTESYVKHQGLNKNINLDSADGMPVASTDQWSELTEAERLQENLQAYRTFHVLLARLLEDQQVHFTPTEGDFHQAIHTLLLQVAAFAYQIEELMILLEYKIPRNEADGMPINVGDGGLFEKKLWGLKVLSELSHWTVRSIHDLRFISSHQTGIPARGSHYIANNKKM"
readout_kind = "Relative Binding (hCNTF = 1)"
value_measured = "4.1 relative (hCNTF = 1)"

[[record]]
binder = "(Gln167Tyr) hCNTF (ligand) MAFTEHSPLTPHRRDLCSRSIWLARKIRSDLTALTESYVKHQGLNKNINLDSADGMPVASTDQWSELTEAERLQENLQAYRTFHVLLARLLEDQQVHFTPTEGDFHQAIHTLLLQVAAFAYQIEELMILLEYKIPRNEADGMPINVGDGGLFEKKLWGLKVLQELSYWTVRSIHDLRFISSHQTGIPARGSHYIANNKKM"
readout_kind = "Relative Binding (hCNTF = 1)"
value_measured = "9.6 relative (hCNTF = 1)"

[[record]]
binder = "(Lys160Gln/Gln167Thr) hCNTF (ligand) MAFTEHSPLTPHRRDLCSRSIWLARKIRSDLTALTESYVKHQGLNKNINLDSADGMPVASTDQWSELTEAERLQENLQAYRTFHVLLARLLEDQQVHFTPTEGDFHQAIHTLLLQVAAFAYQIEELMILLEYKIPRNEADGMPINVGDGGLFEKKLWGLQVLQELSTWTVRSIHDLRFISSHQTGIPARGSHYIANNKKM"
readout_kind = "Relative Binding (hCNTF = 1)"
value_measured = "3.1 relative (hCNTF = 1)"

[[record]]
binder = "(Ser166Ala/Gln167Ala) hCNTF (ligand) MAFTEHSPLTPHRRDLCSRSIWLARKIRSDLTALTESYVKHQGLNKNINLDSADGMPVASTDQWSELTEAERLQENLQAYRTFHVLLARLLEDQQVHFTPTEGDFHQAIHTLLLQVAAFAYQIEELMILLEYKIPRNEADGMPINVGDGGLFEKKLWGLKVLQELAAWTVRSIHDLRFISSHQTGIPARGSHYIANNKKM"
readout_kind = "Relative Binding (hCNTF = 1)"
value_measured = "8.1 relative (hCNTF = 1)"

[[record]]
binder = "(Gln63Arg/Ser166Asp/Gln167His) hCNTF (ligand) MAFTEHSPLTPHRRDLCSRSIWLARKIRSDLTALTESYVKHQGLNKNINLDSADGMPVASTDRWSELTEAERLQENLQAYRTFHVLLARLLEDQQVHFTPTEGDFHQAIHTLLLQVAAFAYQIEELMILLEYKIPRNEADGMPINVGDGGLFEKKLWGLKVLQELDHWTVRSIHDLRFISSHQTGIPARGSHYIANNKKM"
readout_kind = "Relative Binding (hCNTF = 1)"
value_measured = "66 relative (hCNTF = 1)"


What value of Relative Binding (hCNTF = 1) has been recorded for this entry: (Val161Leu/Gln167Ala) hCNTF (ligand) MAFTEHSPLTPHRRDLCSRSIWLARKIRSDLTALTESYVKHQGLNKNINLDSADGMPVASTDQWSELTEAERLQENLQAYRTFHVLLARLLEDQQVHFTPTEGDFHQAIHTLLLQVAAFAYQIEELMILLEYKIPRNEADGMPINVGDGGLFEKKLWGLKLLQELSAWTVRSIHDLRFISSHQTGIPARGSHYIANNKKM 8.8 relative (hCNTF = 1)

What value of Relative Binding (hCNTF = 1) has been recorded for this entry: (Asp30Gln/Ser166Asp/Gln167His) hCNTF (ligand) MAFTEHSPLTPHRRDLCSRSIWLARKIRSQLTALTESYVKHQGLNKNINLDSADGMPVASTDQWSELTEAERLQENLQAYRTFHVLLARLLEDQQVHFTPTEGDFHQAIHTLLLQVAAFAYQIEELMILLEYKIPRNEADGMPINVGDGGLFEKKLWGLKVLQELDHWTVRSIHDLRFISSHQTGIPARGSHYIANNKKM 30 relative (hCNTF = 1)

What value of Relative Binding (hCNTF = 1) has been recorded for this entry: (Ser166Asp/Gln167His) hCNTF (ligand, also called DH-CNTF; DH-hCNTF) MAFTEHSPLTPHRRDLCSRSIWLARKIRSDLTALTESYVKHQGLNKNINLDSADGMPVASTDQWSELTEAERLQENLQAYRTFHVLLARLLEDQQVHFTPTEGDFHQAIHTLLLQVAAFAYQIEELMILLEYKIPRNEADGMPINVGDGGLFEKKLWGLKVLQELDHWTVRSIHDLRFISSHQTGIPARGSHYIANNKKM 22.8 relative (hCNTF = 1)

What value of Relative Binding (hCNTF = 1) has been recorded for this entry: (Gln167Thr) hCNTF (ligand) MAFTEHSPLTPHRRDLCSRSIWLARKIRSDLTALTESYVKHQGLNKNINLDSADGMPVASTDQWSELTEAERLQENLQAYRTFHVLLARLLEDQQVHFTPTEGDFHQAIHTLLLQVAAFAYQIEELMILLEYKIPRNEADGMPINVGDGGLFEKKLWGLKVLQELSTWTVRSIHDLRFISSHQTGIPARGSHYIANNKKM 11.8 relative (hCNTF = 1)

What value of Relative Binding (hCNTF = 1) has been recorded for this entry: (Lys160Gln/Gln167Ala) hCNTF (ligand) MAFTEHSPLTPHRRDLCSRSIWLARKIRSDLTALTESYVKHQGLNKNINLDSADGMPVASTDQWSELTEAERLQENLQAYRTFHVLLARLLEDQQVHFTPTEGDFHQAIHTLLLQVAAFAYQIEELMILLEYKIPRNEADGMPINVGDGGLFEKKLWGLQVLQELSAWTVRSIHDLRFISSHQTGIPARGSHYIANNKKM 11.7 relative (hCNTF = 1)
